protocolNotes: Reducing ability in DPPH assay
recordedConditions: compound 100 μM, 60 min
Threshold check on RA (%) 100μM 60 min: strictly below 20% is true; on or above 20% is false.

Task item: Does the reported RA (%) 100μM 60 min of CN1CCN(c2nc(NCc3ccccc3)c3nccnc3n2)CC1 [Compound 18a] stay below 20%?
Reply: true

Task item: Does the reported RA (%) 100μM 60 min of CCN1CCN(CC)c2c1nc(N1CCN(C)CC1)nc2N1CCN(C)CC1 [Compound 10b] stay below 20%?
Reply: false

----------
Task for the reader: assign each of the following compounds its reported RA (%) 100μM 20 min.
protocolNotes: Reducing ability in DPPH assay
recordedConditions: compound 100 μM, 20 min
Show the value, then the unit it is measured in.

Some entries whose results are on file:
INSERT INTO measurements (compound, result) VALUES
  ('CN1CCCN(c2nc(NCc3cccs3)c3nccnc3n2)CC1 [Compound 20b]', '15%'),
  ('CN1CCN(c2nc(NCc3cccs3)c3nccnc3n2)CC1 [Compound 18f]', '6%');

# context switch: different compound, same RA (%) 100μM 20 min
Task item: Fill in: RA (%) 100μM 20 min of CN1CCN(c2nc(NCc3cccnc3)c3nccnc3n2)CC1 [Compound 18d] is ___
Reply: 10%

----------
systemTested: soybean lipoxygenase (Glycine max, UniProt P08170)
Construct: purchased Sigma
Sequence (P08170 1-839): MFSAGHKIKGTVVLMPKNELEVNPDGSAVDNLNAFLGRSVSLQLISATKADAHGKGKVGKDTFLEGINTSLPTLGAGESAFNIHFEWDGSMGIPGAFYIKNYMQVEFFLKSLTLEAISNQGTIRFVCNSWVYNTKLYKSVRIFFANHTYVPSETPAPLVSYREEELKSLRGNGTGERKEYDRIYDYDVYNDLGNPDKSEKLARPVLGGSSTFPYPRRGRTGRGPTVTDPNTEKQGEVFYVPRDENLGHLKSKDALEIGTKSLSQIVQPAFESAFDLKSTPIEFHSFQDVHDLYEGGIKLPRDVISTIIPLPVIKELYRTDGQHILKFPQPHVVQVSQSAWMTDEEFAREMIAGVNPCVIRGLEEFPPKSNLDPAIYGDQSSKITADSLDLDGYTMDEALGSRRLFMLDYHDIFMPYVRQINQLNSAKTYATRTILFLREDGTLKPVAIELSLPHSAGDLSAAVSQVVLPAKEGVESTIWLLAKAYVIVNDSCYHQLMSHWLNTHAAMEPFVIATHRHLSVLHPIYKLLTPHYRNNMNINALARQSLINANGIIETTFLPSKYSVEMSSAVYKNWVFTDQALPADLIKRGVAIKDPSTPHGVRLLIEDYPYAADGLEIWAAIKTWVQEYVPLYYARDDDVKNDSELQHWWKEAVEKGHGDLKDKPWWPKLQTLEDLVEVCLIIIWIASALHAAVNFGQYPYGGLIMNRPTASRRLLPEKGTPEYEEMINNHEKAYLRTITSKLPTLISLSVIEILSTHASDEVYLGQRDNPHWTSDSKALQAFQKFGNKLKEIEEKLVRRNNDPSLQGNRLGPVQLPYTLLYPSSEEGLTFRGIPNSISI
protocolNotes: Inhibition of soybean lipoxygenase
Format: biochemical
recordedConditions: compound at 100 µM, read-out: Lipoxygenase inhibitory activity (% at 100 µM)
propertyName: inhibition at 100 µM
Show the value, then the unit it is measured in.

INSERT INTO assay_data (compound, systemtested, result) VALUES
  ('CN1CCN(c2nc(N)c3nc(-c4ccccc4)c(-c4ccccc4)nc3n2)CC1 [Compound 5c]', 'soybean lipoxygenase (Glycine max, UniProt P08170)', '22.5%'),
  ('CN1CCN(c2nc(NCc3ccco3)c3nccnc3n2)CC1 [Compound 18e]', 'soybean lipoxygenase (Glycine max, UniProt P08170)', '24%'),
  ('CN1CCN(c2nc(NCCc3ccccc3)c3nccnc3n2)CC1 [Compound 18c]', 'soybean lipoxygenase (Glycine max, UniProt P08170)', '22.5%'),
  ('COc1ccccc1CNc1nc(N2CCN(C)CC2)nc2nccnc12 [Compound 18b]', 'soybean lipoxygenase (Glycine max, UniProt P08170)', '40%'),
  ('CN1CCN(c2nc(NCc3ccccc3)c3nccnc3n2)CC1 [Compound 18a]', 'soybean lipoxygenase (Glycine max, UniProt P08170)', '31.5%');

# context switch: different compound, same inhibition at 100 µM
Task item: Fill in: inhibition at 100 µM of CN1CCN(c2nc(N)c3nccnc3n2)CC1 [Compound 5a] is ___
Reply: 37.5%
